Please provide measured TGI for the entries that follow.
# System: SR leukemia
# assay.comment: NCI tumour cell line growth inhibition, 48 h
Write the number in µM without appending the unit.

Report its TGI with SR leukemia as the test system: Cc1ccc2c(c1)C(=O)/C(=C/c1cccc(OCC(=O)c3ccc(Cl)cc3)c1)CS2 4.28

Report its TGI with SR leukemia as the test system: CCc1nc(N)nc(N)c1-c1ccc(N(C)Cc2ccccc2)c([N+](=O)[O-])c1 4.16

Report its TGI with SR leukemia as the test system: Nc1n[nH]c(N)n1 9840

Report its TGI with SR leukemia as the test system: CC1=C(N2CC2)C(=O)C(C)=C(N2CC2)C1=O 5.72

Report its TGI with SR leukemia as the test system: CCOP(=O)(OCC)C(NC(c1ccccc1)c1ccccc1)c1ccsc1 (stereo not drawn) 98.2

---

# Tested on: IGROV1 ovarian
# assay.comment: NCI tumour cell line growth inhibition, 48 h; in the data active = GI50 below about 0.43 µM; inactive = the rest
Outcome field: choose from 1 (active), 0 (inactive)

GET /call?item= Cc1cc2oc(=O)cc(OC/C=C3/CCC(=O)O3)c2cc1C returns the recorded outcome of this test. 0

GET /call?item= COC(=O)c1cc2c([nH]c3ccccc32)c(-c2nc3ccccc3cc2CO)n1 returns the recorded outcome of this test. 0

GET /call?item= COc1ccc2[nH]cc(C3(c4c[nH]c5ccc(OC)cc45)C(=O)Nc4ccc(Cl)cc43)c2c1 returns the recorded outcome of this test. 0

GET /call?item= Oc1ccccc1/C=N\Nc1ccccc1 returns the recorded outcome of this test. 0

GET /call?item= NS(=O)(=O)c1ccc(-n2nc(-c3ccccc3)cc2-c2cc(O)ccc2O)cc1 returns the recorded outcome of this test. 0

GET /call?item= COC1/C=C/OC2(C)Oc3c(C)c(O)c4c(O)c(c(/C=N/N(c5ccccc5)c5ccccc5)c(O)c4c3C2=O)NC(=O)C(C)=C/C=C/C(C)C(O)C(C)C(O)C(C)C(OC(C)=O)C1C (stereo not given) returns the recorded outcome of this test. 0

GET /call?item= COc1ccc(Cl)cc1Nc1nc(C(F)(F)F)ccc1C(=O)N/N=C/c1ccccc1Cl returns the recorded outcome of this test. 0

GET /call?item= O=C1NC(c2cccc3ccccc23)Nc2ccccc21 (stereo not given) returns the recorded outcome of this test. 1

GET /call?item= CN(CO)c1nc(N(C)CO)nc(N(C)CO)n1 returns the recorded outcome of this test. 0

GET /call?item= Cc1c(C(=O)/C=C/c2ccc(Cl)cc2)nnn1-c1ccnc2c(C(F)(F)F)cccc12 returns the recorded outcome of this test. 0

GET /call?item= COc1cc2c(cc1OC)-c1c(c3ccc([N+](=O)[O-])cc3c(=O)n1CCCN=[N+]=[N-])C2=O returns the recorded outcome of this test. 0

GET /call?item= Cc1nccc2c3ccc(OCc4cn(-c5ccc(Br)cc5)nn4)cc3n(CCCc3ccccc3)c12 returns the recorded outcome of this test. 0

GET /call?item= O=c1oc2ccc(I)cc2c(=O)n1-c1ccc(I)cc1F returns the recorded outcome of this test. 1

GET /call?item= CCCn1cc(/C=N\N=C2\C(=O)Nc3ccc(C)cc32)c2ccccc21 returns the recorded outcome of this test. 0

GET /call?item= COc1ccccc1-c1ccc2c(N)c(C(=O)c3ccc4c(c3)OCO4)sc2n1 returns the recorded outcome of this test. 0

---

# Tested on: HCC-2998 colon
# assay.comment: NCI tumour cell line growth inhibition, 48 h
assay.metric: TGI

Give recorded TGI. O=C(CO)CC(=O)C(=O)Nc1cccc(C(F)(F)F)c1 > 100 µM

Give recorded TGI. Cn1cc(-c2csc(-c3cn(CCCN4CCCCC4)c4ccc(Br)cc34)n2)c2cccnc21 3.61 µM

Give recorded TGI. COc1c(-c2ccc(F)cc2)oc2c(CC(=O)O)cccc2c1=O > 100 µM

Give recorded TGI. CC(=O)c1ccc(Nc2nc3ccccc3c3occc23)cc1 28.4 µM

Give recorded TGI. CCCn1cc(/C=N\N=C2\C(=O)Nc3ccc(C)cc32)c2ccccc21 5.14 µM

Give recorded TGI. Cc1cc(S(=O)(=O)Nc2nnc3c(Cl)cc(C(F)(F)F)cn23)c(S)cc1Cl > 100 µM

Give recorded TGI. CC(=O)OC1CC2C(=O)CC1(C)C2(C)C (stereo unspecified) > 100 µM

Give recorded TGI. Nc1n[nH]c(N)n1 > 10000 µM

Give recorded TGI. COC(=O)/C(=N\Nc1nc(=S)[nH]n1N)C(C#N)c1ccc(Cl)cc1 (stereo unspecified) > 100 µM

Give recorded TGI. Cc1cc2oc(=O)cc(OC/C=C3/CCC(=O)O3)c2cc1C 31 µM

Give recorded TGI. Nc1nc(N)c(CCCCc2ccccc2)c(/C=C/c2ccc([N+](=O)[O-])cc2)n1 9.04 µM

---

# System: NCI-H23 lung
# assay.comment: NCI tumour cell line growth inhibition, 48 h
Where a SMILES comes first, the peptide text is derived from it. Bridges are numbered along the chain shown (N, C = ends).
Please provide measured TGI for the entries that follow.

Give recorded TGI. CCC1=CCC(P(=O)(c2ccccc2)c2ccccc2)CC1C (centres undefined) > 100 µM

Give recorded TGI. CN(C)c1ccc(/C=N/n2c(CCCCc3n[nH]c(=S)n3/N=C/c3ccc(N(C)C)cc3)n[nH]c2=S)cc1 > 100 µM

Give recorded TGI. O=C1/C=C/[C@@H](O)[C@@H]2C[C@@H](O)C[C@H]2/C=C/CCC[C@H](CCc2ccc(NC(=S)Nc3ccc4c(c3)C(=O)OC43c4ccc(O)cc4Oc4cc(O)ccc43)cc2)O1 > 74 µM

Give recorded TGI. C[C@@]12C[C@@H](c3ccccc3O1)N1CCCSC1=N2 > 100 µM

Give recorded TGI. COc1c(-c2ccc(F)cc2)oc2c(CC(=O)O)cccc2c1=O > 100 µM

Give recorded TGI. O=[N+]([O-])c1ccc(C2NC(=S)NC3c4cc([N+](=O)[O-])ccc4CCCC23)cc1 (centres undefined) > 100 µM

Give recorded TGI. CC(C)c1ccc(C(c2c(O)c3ccccc3oc2=O)c2c(O)c3ccccc3oc2=O)cc1 51.6 µM

Give recorded TGI. c1ccc(N2CCN(CCCN3CCc4c([nH]c5ccccc45)C3c3cccnc3)CC2)cc1 (centres undefined) > 100 µM

Give recorded TGI. O=C(N/N=C\c1ccc(Cl)cc1)Nc1cccc2ccccc12 98.9 µM

Give recorded TGI. CC(=O)O[C@H]1C(=O)[C@@]2(C)[C@H]([C@H](OC(=O)c3ccccc3)[C@]3(O)C[C@H](OC(=O)[C@H](O)[C@@H](NC(=O)OC(C)(C)C)c4ccco4)C(C)=C1C3(C)C)[C@]1(OC(C)=O)CO[C@@H]1C[C@@H]2O > 40.9 µM

Give recorded TGI. CCn1c(=O)c2c3ccc(O)cc3[nH]c2c2ccc(O)cc21 > 100 µM

Give recorded TGI. COc1cc2c(cc1OC)-c1c(c3ccc([N+](=O)[O-])cc3c(=O)n1CCCN=[N+]=[N-])C2=O > 100 µM

Give recorded TGI. C/C(CC(=O)Nc1cccc([N+](=O)[O-])c1)=N/NC(N)=S > 100 µM

Give recorded TGI. CCC(C)C1NC(=O)C(CC(C)C)NC(=O)C(C(C)C)NC(=O)C2CSSCC(NC1=O)C(=O)N2 (centres undefined) (cyclo(CCVLI); disulfide 1-2; configuration not given here) 0.277 µM

Give recorded TGI. Cc1cc(N(CCC#N)CCC#N)ccc1/C=C(\N=[N+]=[N-])C(=O)NC(=O)COc1ccccc1 > 100 µM

Give recorded TGI. Fc1ccc(-c2c(-c3ccncc3)[nH]c3cccnc23)cc1 > 25 µM

Give recorded TGI. COC(=O)N1C2C(C[C@@]1(C)C(=O)OC)c1ccccc1N2S(=O)(=O)c1ccccc1 (some centres undefined) > 100 µM

Give recorded TGI. CC(NNC(=S)N1CCCC1)c1cccnn1 (centres undefined) > 100 µM

Give recorded TGI. CCOC1Oc2ccccc2C(=O)/C1=C\Nc1ccc(C(=O)O)c(O)c1 (centres undefined) 63.1 µM

---

# System: SF-539 CNS
# assay.comment: NCI tumour cell line growth inhibition, 48 h
Classification field: rule met = TGI at or over 10 µM; rule not met = TGI under 10 µM.

Quick check, TGI >= 10 µM? COc1ccc(C(SCCO)(c2ccc(OC)cc2)c2ccc(OC)cc2)cc1 rule met

Quick check, TGI >= 10 µM? O=C(O)C1C2C=CC(O2)C1C(=O)NCc1ccncc1 (configuration not stated) rule met

Quick check, TGI >= 10 µM? Cc1nc2c(n1Cc1ccc(F)cc1)C(=O)c1ccccc1C2=O rule met

Quick check, TGI >= 10 µM? CC(C)c1ccc(C(O)(C(=O)O)c2ccc(C(C)C)cc2)cc1 rule met

Quick check, TGI >= 10 µM? CCOC(=O)C12CCC(c3c(C)cccc3C)(O1)C(C(=O)OC)=C2C(=O)OC (configuration not stated) rule not met

Quick check, TGI >= 10 µM? Nc1nc(N)c(CCCCc2ccccc2)c(/C=C/c2ccc([N+](=O)[O-])cc2)n1 rule not met

Quick check, TGI >= 10 µM? Oc1ccccc1CNCc1ccccc1O rule met

Quick check, TGI >= 10 µM? COc1ccc2[nH]cc(Cc3c[nH]c4ccc(OC)cc34)c2c1 rule met

Quick check, TGI >= 10 µM? Cc1ccc(C(CCO)CCO)nc1 rule met

Quick check, TGI >= 10 µM? CC(=O)OC(C)(C)C[N+](=O)[O-] rule met

Quick check, TGI >= 10 µM? CC1=C(C(=O)Nc2ccccc2C)C(c2ccccc2O)C(C(=O)Nc2ccccc2C)=C(C)N1 rule met

Quick check, TGI >= 10 µM? COc1cc2cnc3c4cc(O)ccc4ccc3c2cc1OC rule met

Quick check, TGI >= 10 µM? Cc1cnc2c(c1)C(=O)N(c1ccc(Br)cc1)S2(=O)=O rule met

Quick check, TGI >= 10 µM? CCN(CC)CCCNc1nccc2c(C)c3[nH]c4ccncc4c(=O)c3cc12 rule met

Quick check, TGI >= 10 µM? NC1C2C=CC(C2)C1C(=O)O (configuration not stated) rule met

Quick check, TGI >= 10 µM? O=C1Nc2n[nH]c(=S)n2NC12c1ccccc1-c1ccccc12 rule met

Quick check, TGI >= 10 µM? Cc1cnc(-c2ccc(-c3ccc(NC(=O)Nc4cccc(C(F)(F)F)c4)cc3F)c3c2C(=O)NC3)[nH]1 rule met

Quick check, TGI >= 10 µM? O=[N+]([O-])c1cc(C(F)(F)F)cc2n[se]nc12 rule not met

Quick check, TGI >= 10 µM? Cc1cc(=O)n2c(cc3cccccc32)n1 rule met

Quick check, TGI >= 10 µM? CC(=O)O[C@H]1C(=O)[C@@]2(C)[C@H]([C@H](OC(=O)c3ccccc3)[C@]3(O)C[C@H](OC(=O)[C@H](O)[C@@H](NC(=O)OC(C)(C)C)c4ccco4)C(C)=C1C3(C)C)[C@]1(OC(C)=O)CO[C@@H]1C[C@@H]2O rule not met

Quick check, TGI >= 10 µM? Nc1n[nH]c(N)n1 rule met

Quick check, TGI >= 10 µM? CC(O)(c1ccc(OCCC[N+](C)(C)C)cc1)C(C)(O)c1ccc(OCCC[N+](C)(C)C)cc1 (configuration not stated) rule met

Source listed as PubChem BioAssay (NCI).
